# ASSAY_SYSTEM: human adenosine A2A receptor (Homo sapiens, UniProt P29274)
# Construct: expressed in transfected cells; host or cells: CHO cells, Semliki Forest virus expression system; washed membrane pellet used
# Sequence (P29274 whole entry): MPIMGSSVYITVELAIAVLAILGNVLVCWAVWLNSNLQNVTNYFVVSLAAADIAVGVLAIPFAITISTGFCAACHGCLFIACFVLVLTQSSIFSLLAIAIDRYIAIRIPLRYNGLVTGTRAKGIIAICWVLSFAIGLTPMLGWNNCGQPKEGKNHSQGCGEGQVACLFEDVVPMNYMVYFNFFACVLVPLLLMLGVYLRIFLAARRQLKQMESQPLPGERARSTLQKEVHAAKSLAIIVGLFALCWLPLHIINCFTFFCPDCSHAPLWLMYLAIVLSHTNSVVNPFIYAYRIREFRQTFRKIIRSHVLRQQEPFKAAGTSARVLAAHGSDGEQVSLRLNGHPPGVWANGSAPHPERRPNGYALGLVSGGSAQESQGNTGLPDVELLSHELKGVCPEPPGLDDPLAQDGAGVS
# EXPERIMENTAL_DETAILS: [3H]-SCH-58261 binding assay at the human adenosine A2A receptor
# TEST_PARAMETERS: read-out: pKi value (converted)
With a cut-off of 2 nM, any Ki strictly below it is called criterion met; any Ki meeting it or above is called criterion not met.

[
  {
    "ITEM_SMILES": "CCOCCN(C)Cc1ccc(C(=O)Nc2nc3c(OC)ccc(N4CCOCC4)c3s2)cc1",
    "LABEL_CLASS": "criterion not met"
  },
  {
    "ITEM_SMILES": "COc1ccc(N2CCOCC2)c2sc(NC(=O)c3ccc(C(F)(F)F)cc3)nc12",
    "LABEL_CLASS": "criterion not met"
  },
  {
    "ITEM_SMILES": "COc1ccc(-c2csc(-c3ccc(C)nc3)n2)c2sc(NC(=O)N3CCOCC3)nc12",
    "LABEL_CLASS": "criterion met"
  },
  {
    "ITEM_SMILES": "COCCN(C)Cc1ccc(C(=O)Nc2nc3c(OC)ccc(-c4cccs4)c3s2)cc1",
    "LABEL_CLASS": "criterion not met"
  },
  {
    "ITEM_SMILES": "CCOCCNCc1ccc(C(=O)Nc2nc3c(OC)ccc(N4CCOCC4)c3s2)cc1",
    "LABEL_CLASS": "criterion not met"
  }
]

IN: Check if Ki falls below 2 nM for COCCNCc1ccc(C(=O)Nc2nc3c(OC)ccc(-c4ccccc4)c3s2)cc1 .
OUT: criterion met
